From: PubChem BioAssay

# z-score per record follows
assay_text: adipocyte viability effects, profiling panel, cell-based, 3T3-L1 adipocytes, calcein-AM fluorescence, 48 h, basal (AID 1163); further: test concentration not given here
conditions_used: 3T3-L1 adipocytes viability, higher = more signal
Note: the reply should be a number with no unit written.

Solved entries:
# compound, z-score
data = [
    ("C#CCN(C(=O)OC(C)(C)C)[C@H](CO)c1ccccc1", -0.24),
    ("O=C1N(Cc2ccccc2)c2ccccc2C[C@@]12N=C(c1ccc(OCCCO)cc1)O[C@H]2c1ccccc1", 0.84),
    ("COC(=O)[C@H](Cc1ccccc1)N1CC(C)(OC)O[C@@H](Cc2ccccc2)[C@H]1/C=C/C1CC1 (stereo partly drawn)", -0.317),
    ("C=CC[C@@]1(C(=O)NCCCOC)N=C(c2ccc(OCCCO)cc2)O[C@@H]1c1ccccc1CN=[N+]=[N-]", 0.532),
    ("C=C1C(=O)C=C2CN(C(=O)c3ccccc3)[C@@](Cc3ccc(F)cc3)(C(=O)OC)[C@@H]12", -1.94),
    ("COCCCNC(=O)[C@@]1(Cc2ccccc2I)c2ccccc2C(=O)N(C2CCCCC2)[C@H]1c1ccc(CO)cc1", 0.2),
    ("O=C1C[C@@](C(=O)NCC(F)(F)F)(c2ccc([N+](=O)[O-])cc2)[C@@H](c2ccc(CO)cc2I)N1CC12CC3CC(CC(C3)C1)C2", 0.463),
]

# context switch: different compound, same z-score
Exam item: Return reported z-score; argument: CN1C(=O)C2CC=C(C3=CCO[C@@H]3[C@H]3CCCN3S(=O)(=O)c3ccccc3[N+](=O)[O-])CC2C1=O (stereo partly drawn)
Marked response: 0.102

====

Below, each entry is listed alongside its reported z-score.
assay_text: Plasmodium falciparum growth inhibition, primary screen, strain 3D7, DAPI fluorescence, 100 nL (AID 1184);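 further: parasites grown inside human red blood cells in medium with human serum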
conditions_used: P. falciparum 3D7 growth, 3 d, higher = more signal
Just the number.

# compound, z-score
data = [
    ("[N-]=[N+]=NCc1ccccc1[C@H]1OC(c2ccc(OCCCO)cc2)=N[C@@]1(Cc1ccccc1N=[N+]=[N-])C(=O)N1CCOCC1", -2.27),
]

Exam item: Any idea what z-score was measured for COC(=O)c1ccc(OC)c(/C=C\CC(OC(=O)c2ccncc2)c2ccccc2)c1 (configuration not stated) ?
Marked response: -1.33

Exam item: Now the same for `COc1ccc(CCNC(=O)[C@@]2(C)c3ccccc3C(=O)N(Cc3ccc(OC(F)(F)F)cc3)[C@H]2c2ccc(CO)cc2)cc1`
Marked response: -1.21

Exam item: Entry CCCCN1CC=CC23O[C@@H]4/C=C\CCCOC(=O)C4[C@H]2C(=O)N(CCCCCCO)[C@@H]3C1=O (some centres not stated) please
Marked response: -0.165

Exam item: Please do the same for `C=C(C(=O)CC[C@@H](OC(=O)c1ccccc1-c1ccccc1C(=O)O)c1ccc(OCCO)cc1)C(C)C` as well.
Marked response: -2.12

Exam item: And for `COC(=O)[C@@]1(Cc2ccc(F)cc2)[C@H]2c3cc(C(=O)N4CCCC4)n(Cc4ccc(OC(F)(F)F)cc4)c3C[C@H]2CN1C(=O)c1ccccc1` ?
Marked response: 0.096

Exam item: Also need `COc1cc2c(cc1OC)CN(C(=O)[C@@H]1[C@H]3C(=O)O[C@H](c4ccccc4)[C@H](c4ccccc4)N3[C@H](c3ccc(O)cc3)[C@@]13C(=O)Nc1ccc(C#CC4=CCCCC4)cc13)CC2` , thanks.
Marked response: -0.75

====

Test system: wheat germ agglutinin (Triticum aestivum), Alexa647-labelled
assay_text: wheat germ agglutinin binders on compound microarrays, profiling panel, artefact control for SMM control-protein annotation, biochemical, small-molecule microarray, 635/667 nm fluorescence (AID 1140);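 further: score merges 667 nm feature emission with signal to noise over triplicate slides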
conditions_used: WGA-A647 binding, 635 nm fluorescence, higher = more signal
Recorded measurements of composite z-score, one per entry
// no unit, no text: just the number

Past entries and their recorded results:
# compound, composite z-score
measured = [
    ("CCCCN1CC=CC23O[C@@H]4/C=C\\CCC(C)OC(=O)C4[C@H]2C(=O)N(CCO)[C@@H]3C1=O (some centres not stated)", -0.169),
    ("CC(C)(C)OC(=O)CC[C@]1(C(=O)N2CCOCC2)COC(c2ccc(OCCCO)cc2)=N1", 0.672),
    ("C=CC[C@@]1(C(=O)NCCCOC)N=C(c2ccc(OCCCO)cc2)O[C@@H]1c1ccccc1CN=[N+]=[N-]", 0.719),
    ("COC(=O)c1c2oc(c1C(=O)OC)C(=O)N[C@H](Cc1ccccc1)Cn1cc(nn1)C1(CCCCC1)NC(=O)N[C@H](CO)CC2", 0.722),
    ("COc1ccc(C(=O)Nc2cccc(CN3C(=O)[C@]4(O[C@H](CC(=O)N(CCO)Cc5ccccc5)[C@@H]([Si](C)(C)c5ccc(OC)cc5)[C@@H]4C)c4ccccc43)c2)cc1", 0.596),
]

Exam item: Fill in the blank: the reported composite z-score of `CCCC=C(CCC)[C@@H](NC(=O)c1ccc(C(=O)OC)cc1)c1ccc(C(=O)OC)cc1` is ____.
Marked response: 0.315

Exam item: What do we get for `C=CCOC(=O)[C@H]1[C@@H]2C(=O)O[C@@H](c3ccccc3)[C@@H](c3ccccc3)N2[C@@H](c2ccc(OCCOC(=O)[C@H]3C[C@H]4C(=O)NCC(=O)N4[C@H]3c3ccc(O)cc3)cc2)[C@]12C(=O)Nc1ccccc12` ?
Marked response: 0.543

====

assay_text: anti-His antibody binders, primary screen, artefact control for SMM control protein annotation, biochemical, small-molecule microarray, 635 nm fluorescence (AID 1128);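 further: score merges feature fluorescence with signal-to-noise for each printed compound spot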
conditions_used: anti-His Alexa647 antibody binding, higher = more signal
Use 1 as the dividing line for composite z-score, with the line itself on the satisfied side and lower values as not satisfied.

# molecule, assigned_label
records = [
    ("C=CCNC(=O)[C@@H]1[C@H]2C(=O)O[C@H](c3ccccc3)[C@H](c3ccccc3)N2[C@H](c2ccc(O)cc2)[C@@]12C(=O)N(C(=O)OCCOC)c1ccc(C#CCC(C(=O)OC)C(=O)OC)cc12", "satisfied"),
    ("Cc1ccc(S[C@]2(C(=O)NC3CC3)CC(=O)N(C3Cc4ccccc4C3)[C@@H]2c2ccc(CO)cc2I)cc1", "not satisfied"),
    ("CN1C(=O)C2C=CC(C(O)c3ccc([N+](=O)[O-])cc3)N(Nc3ccccc3)C2C1=O (stereo not drawn)", "not satisfied"),
    ("COC(=O)c1c2oc(c1C(=O)OC)C(=O)N[C@H](Cc1ccccc1)Cn1cc(nn1)C1(CCCCC1)NC(=O)N[C@H](CO)CC2", "not satisfied"),
    ("CCCCC=C[C@@H](NC(=O)C(C)(C)C)c1ccccc1", "satisfied"),
]

Exam item: Determine whether this molecule has composite z-score no lower than 1: `COCCOC(=O)N1C(=O)[C@@]2(c3cc(C#CCNC(N)=O)ccc31)[C@H](c1ccc(O)cc1)N1[C@H](c3ccccc3)[C@H](c3ccccc3)OC(=O)[C@H]1[C@@H]2C(=O)N1CCc2cc(OC)c(OC)cc2C1`
Marked response: satisfied

Exam item: Request: CCCCCN1CC=CC23O[C@@H]4/C=C\CCCOC(=O)C4[C@H]2C(=O)N(CCCCCO)[C@@H]3C1=O (stereo partly drawn)
Marked response: not satisfied

Exam item: Would you mind doing `O=C1O[C@@H](c2ccccc2)[C@@H](c2ccccc2)N2[C@@H](c3ccc(OCCO)cc3)[C@]3(C(=O)Nc4ccc(C#CC5=CCCCC5)cc43)[C@@H](C(=O)Nc3nc4ccccc4s3)[C@H]12` as well?
Marked response: not satisfied

====

assay_text: binders of probe aFSTL3 on microarray, primary screen, stem cell growth factor project, biochemical, small-molecule microarray, fluorescence 635/667 (AID 1064);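 further: measures binding of the biotinylated anti-FSTL3 antibody to printed compounds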
conditions_used: higher = more signal
Decide using composite z-score: a value greater than or equal to 0.7 is 1.0, a smaller one is 0.0.

Exam item: Can `COc1ccc(CCNC(=O)[C@@]2(c3ccc([N+](=O)[O-])cc3)CC(=O)N(C3CCCCC3)[C@@H]2c2ccc(CO)cc2I)cc1` be said to have composite z-score at or above 0.7?
Marked response: 1.0

Exam item: How about O=C1NC(=O)C2C1C=CC(C(O)C1CCCCC1)N2Nc1ccccn1 (stereo not drawn) ?
Marked response: 0.0

Exam item: Continue with `C=C[C@@H](CO)NS(=O)(=O)c1ccc(Br)cc1`
Marked response: 0.0

Exam item: Follow-up item: `COC(=O)C(CC#Cc1ccc2c(c1)[C@]1(C(=O)N2)[C@H](C(=O)N2CCN(c3ncccn3)CC2)[C@H]2C(=O)O[C@H](c3ccccc3)[C@H](c3ccccc3)N2[C@@H]1c1ccc(O)cc1)C(=O)OC`
Marked response: 1.0

Exam item: Please answer likewise for `O=C1O[C@@H](c2ccccc2)[C@@H](c2ccccc2)N2[C@@H](c3ccc(OCCO)cc3)[C@]3(C(=O)Nc4ccc(C#CC5=CCCCC5)cc43)[C@@H](C(=O)Nc3nc4ccccc4s3)[C@H]12`
Marked response: 0.0

Exam item: What do we get for COC(=O)C1(CC(C)C)C=C2C(=C(C)C(=O)C2C)CN1 (stereo not drawn) ?
Marked response: 1.0

Exam item: Moving on to the next molecule: `C=C(C(=O)CC[C@@H](OC(=O)c1ccccc1-c1ccccc1C(=O)O)c1cccc(OCCO)c1)C(C)C`
Marked response: 0.0
